Measured GI50 accompanies every entry in the list below.
target: Ba/F3 V617F cells (Homo sapiens, UniProt O60674, V617F, cells depend on it); assay: Proliferation assay (Cell Titer-Glo, 72 h) utilizing Ba/F3 V617F cells; format: cell-based, mouse; settings: Ba/F3 V617F cells, proliferation, level of activity given as class symbol, read-out: IC50 (the source's name)
Sequence (O60674 whole entry V617F): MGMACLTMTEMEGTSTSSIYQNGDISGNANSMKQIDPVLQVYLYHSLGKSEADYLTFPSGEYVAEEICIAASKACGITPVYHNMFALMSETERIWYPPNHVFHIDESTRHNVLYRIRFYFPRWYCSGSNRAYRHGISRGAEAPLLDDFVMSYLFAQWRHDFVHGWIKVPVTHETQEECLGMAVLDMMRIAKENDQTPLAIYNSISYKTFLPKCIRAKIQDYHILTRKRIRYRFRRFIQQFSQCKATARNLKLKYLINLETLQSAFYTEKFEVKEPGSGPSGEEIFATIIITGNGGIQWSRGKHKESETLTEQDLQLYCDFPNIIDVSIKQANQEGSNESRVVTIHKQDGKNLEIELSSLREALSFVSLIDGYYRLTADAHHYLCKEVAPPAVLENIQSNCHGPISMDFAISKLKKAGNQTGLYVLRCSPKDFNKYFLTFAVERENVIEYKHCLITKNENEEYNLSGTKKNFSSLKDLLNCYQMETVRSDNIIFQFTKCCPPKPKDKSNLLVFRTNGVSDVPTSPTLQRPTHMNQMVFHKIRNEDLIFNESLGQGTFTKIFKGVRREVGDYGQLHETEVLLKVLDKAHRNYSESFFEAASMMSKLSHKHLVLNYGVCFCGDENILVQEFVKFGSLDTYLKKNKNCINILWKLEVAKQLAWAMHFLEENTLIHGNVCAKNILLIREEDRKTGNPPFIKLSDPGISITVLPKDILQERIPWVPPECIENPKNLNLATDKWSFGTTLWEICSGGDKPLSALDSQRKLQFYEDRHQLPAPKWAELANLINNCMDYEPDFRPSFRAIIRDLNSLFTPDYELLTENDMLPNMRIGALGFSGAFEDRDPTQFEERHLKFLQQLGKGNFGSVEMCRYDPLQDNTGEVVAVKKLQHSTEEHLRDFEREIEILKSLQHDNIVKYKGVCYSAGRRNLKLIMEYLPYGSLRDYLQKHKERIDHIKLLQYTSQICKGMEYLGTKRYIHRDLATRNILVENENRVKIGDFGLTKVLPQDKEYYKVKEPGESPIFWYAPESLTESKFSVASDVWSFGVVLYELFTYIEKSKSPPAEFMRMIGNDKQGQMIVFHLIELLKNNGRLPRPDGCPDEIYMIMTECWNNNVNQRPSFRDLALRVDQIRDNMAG

Some molecules with recorded GI50:
Cc1cc(Nc2nccc(-c3ccc4c(c3)CCCC(=O)N4)n2)ccc1N1CCN2C(C1)[C@H]1CC[C@@H]2C1 (stereo partly shown) [compound 278]
< 1 µM
CS(=O)(=O)N1CC2CC(c3ccc(Nc4nccc(-c5ccc(N6CCOCC6)nc5)n4)cc3)C1C2 (stereo not shown) [compound 229]
1 to 10 µM
Cc1cc(Nc2nccc(-c3ccc(NCCC(C)(C)C)nc3)n2)ccc1N1C[C@@H]2C[C@H]1CN2C [compound 218]
< 1 µM
Cc1cc(Nc2nccc(-c3ccc4c(c3)OC(C)(C)C(=O)N4)n2)ccc1N1CCN2C(C1)[C@H]1CC[C@@H]2C1 (stereo partly shown) [compound 244]
< 1 µM
CN1C[C@@H]2C[C@H]1CN2c1ccc(Nc2nccc(-c3ccc4c(c3)SCC(=O)N4)n2)cc1C#N [compound 273]
< 1 µM
Cc1cc(Nc2nccc(-c3ccc4c(c3)OC(C)(C)C(=O)N4)n2)ccc1N1C[C@@H]2C[C@H]1CN2S(C)(=O)=O [compound 241]
< 1 µM
Cc1cc(Nc2nccc(-c3ccc(N4CCOCC4)nc3)n2)ccc1N1C2CCC1CC(N1CCOCC1)C2 (stereo not shown) [compound 284]
< 1 µM
CN1CC2(C)CN(c3ccc(Nc4nccc(-c5cnc6c(c5)OC(C)(C)C(=O)N6)n4)cc3F)CC(C)(C1)C2 [compound 208]
1 to 10 µM
Cc1cc(Nc2nccc(-c3ccc(N4CCOC(CN(C)C)C4)nc3)n2)ccc1N1C[C@@H]2C[C@H]1CN2C (stereo partly shown) [compound 189]
< 1 µM
Cc1cc(Nc2nccc(-c3ccc(N4CCOCC4)nc3)n2)ccc1N1CCN2C(C1)[C@H]1CC[C@@H]2C1 (stereo partly shown) [compound 245]
< 1 µM

Exercise: Please state recorded GI50 (tested on Ba/F3 V617F cells (Homo sapiens, UniProt O60674, V617F, cells depend on it)) of CC1(C)Oc2cc(-c3ccnc(Nc4ccc(C5CC6CC5N(S(C)(=O)=O)C6)cc4)n3)cnc2NC1=O (stereo not shown) [compound 228]
Key: < 1 µM

Exercise: Please state recorded GI50 (tested on Ba/F3 V617F cells (Homo sapiens, UniProt O60674, V617F, cells depend on it)) of CN1C[C@@H]2C[C@H]1CN2c1ccc(Nc2nccc(-c3ccc4c(ccn4-c4ccncc4)c3)n2)cc1F [compound 233]
Key: < 1 µM

* * *

molecular target: Ba/F3 V617F cells (Homo sapiens, UniProt O60674, V617F, cells depend on it); test: Proliferation assay (Cell Titer-Glo, 72 h) utilizing Ba/F3 V617F cells; assay type: cell-based, mouse; conditions: inhibition of JAK2 activity, proliferation of Ba/F3 V617F cells, read-out: IC50 (the source's name)
measured endpoint: GI50

Some molecules with recorded GI50:
CN(C)c1nc(-c2ccnc(Nc3ccc(N4C[C@@H]5C[C@H]4CN5C)nc3)n2)cs1 [compound 177]
> 20 µM
CN1C[C@@H]2C[C@H]1CN2c1ccc(Nc2nccc(-c3cnc(N4CCOCC4)cn3)n2)cn1 [compound 180]
1 to 10 µM

Now examine the next entry.
Exercise: Find the recorded GI50 belonging to CC(=O)N1CCN(c2ccc(-c3ccnc(Nc4ccc(N5C[C@@H]6C[C@H]5CN6C)nc4)n3)cn2)CC1 [compound 57] and report it.
Key: 1 to 10 µM

This collection of values is drawn from patent US9624229B2.
